Test: "Flinch-Jump" Test (FJ)
Type: in vivo, male albino rats, Charles River (Sprague-Dawley) CD strain
Details: sc; subcutaneously; rat flinch jump; read-out: Analgesic Activity ED50, FJ
quantity measured: ED50

compound: CCCCCCC(C)(C)c1ccc([C@@H]2CCC[C@H](O)C2)c(O)c1 (relative stereo)
experimental result: 4 mg/kg
//
compound: CCCCCCC(C)(C)c1ccc(C2CCCCC(=O)C2)c(O)c1 (stereo not shown)
experimental result: 10.8 mg/kg
//
compound: CCCCCCC(C)(C)c1ccc([C@H]2CCCC[C@H](O)C2)c(O)c1 (relative stereo)
experimental result: 5.4 mg/kg
//
compound: CCCCCCC(C)(C)c1ccc([C@@H]2CCCC[C@H](O)C2)c(O)c1 (relative stereo)
experimental result: 3.5 mg/kg
